All values here come from paper PMC7562955.

Tested on: UniProt:Q9NYK1
Sequence (Q9NYK1 27-1049): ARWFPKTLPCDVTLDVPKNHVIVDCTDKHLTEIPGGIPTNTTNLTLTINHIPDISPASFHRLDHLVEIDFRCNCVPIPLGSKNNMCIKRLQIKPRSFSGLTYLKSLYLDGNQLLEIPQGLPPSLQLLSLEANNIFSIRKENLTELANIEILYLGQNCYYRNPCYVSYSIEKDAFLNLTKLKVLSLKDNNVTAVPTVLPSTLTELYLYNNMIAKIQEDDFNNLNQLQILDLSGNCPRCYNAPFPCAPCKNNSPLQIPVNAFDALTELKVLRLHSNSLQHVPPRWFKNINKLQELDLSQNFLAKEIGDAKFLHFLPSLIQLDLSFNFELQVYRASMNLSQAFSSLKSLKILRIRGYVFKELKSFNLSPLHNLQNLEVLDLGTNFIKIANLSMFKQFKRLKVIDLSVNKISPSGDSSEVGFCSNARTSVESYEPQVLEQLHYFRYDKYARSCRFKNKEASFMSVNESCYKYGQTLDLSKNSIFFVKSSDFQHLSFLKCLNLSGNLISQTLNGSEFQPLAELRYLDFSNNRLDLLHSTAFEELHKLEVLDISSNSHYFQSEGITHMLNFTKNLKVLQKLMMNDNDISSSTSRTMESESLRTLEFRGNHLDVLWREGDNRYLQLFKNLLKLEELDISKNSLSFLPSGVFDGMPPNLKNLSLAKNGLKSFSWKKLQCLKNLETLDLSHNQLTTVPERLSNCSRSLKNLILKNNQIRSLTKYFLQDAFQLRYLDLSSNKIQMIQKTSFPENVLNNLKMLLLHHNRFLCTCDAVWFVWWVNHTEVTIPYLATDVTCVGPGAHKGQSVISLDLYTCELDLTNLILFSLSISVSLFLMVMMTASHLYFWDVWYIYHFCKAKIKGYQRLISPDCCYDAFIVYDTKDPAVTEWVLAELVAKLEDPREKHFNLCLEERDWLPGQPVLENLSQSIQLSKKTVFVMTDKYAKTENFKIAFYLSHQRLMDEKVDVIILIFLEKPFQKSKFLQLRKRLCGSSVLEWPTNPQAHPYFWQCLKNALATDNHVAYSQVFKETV
Run description: Human TLR7 reporter gene agonistic activity assay
Type: cell-based
Set-up: host or cells: HEK293 (TLR7/NF-κB/SEAPorter)
Test settings: compound 100 nM (as headed)
Could you please report measured activation of human TLR7, reporter signal for the items listed next?
Form: value (number only, do not type unit).

According to the records, this compound `CCOc1nc(C)c2nc(-c3cncc(F)c3)n(Cc3ccc(CN4C[C@@H]5C[C@H]4CN5C)cc3)c2n1` displays activation of human TLR7, reporter signal of -0.09835

According to the records, this compound `CCOc1nc(N)c2nc(-c3cncc(F)c3)n(Cc3ccc(CN4C[C@@H]5C[C@H]4CN5C)cc3)c2n1` displays activation of human TLR7, reporter signal of -0.12

According to the records, this compound `CCCCOc1nc(N)c2nc(-c3cccnc3)n(Cc3ccccc3)c2n1` displays activation of human TLR7, reporter signal of -0.0973

According to the records, this compound CCOCc1nc2c(N)nc3ccccc3c2n1CC(C)(C)O [R848, reference compound] displays activation of human TLR7, reporter signal of 3.25
